test system: Hs-578T; test: NCI tumour cell line growth inhibition, 48 h
The source made the active and inactive calls. No stated cut-off is given here; in the data, active = GI50 up to about 1.1 µM and inactive = higher.
Examples of molecules with documented GI50 follow.

Molecule	GI50
NC(Cc1cccc([N+](=O)[O-])c1)C(=O)O (stereo unspecified)	> 100 µM (inactive)
COC(=O)Nc1nc2ccc(S(=O)(=O)SC)cc2[nH]1	20.5 µM (inactive)
CC(=O)N1C=Cc2c(c(C)c3c([nH]c4ccccc43)c2C)C1	3.62 µM (inactive)
CC1C(c2ccc(N(C)C)cc2)c2cc3c(cc2OC1N1CCCC1)OCO3 (stereo unspecified)	28.8 µM (inactive)
COc1ccc2c(NCCCCCCNc3c4ccccc4nc4cc(OC)ccc34)c3ccccc3nc2c1	0.219 µM (active)
CC(C)(C)C=C=C(C(C)(C)C)P(=O)(O)O	> 100 µM (inactive)
C/C(=C1\C(=O)C(c2ccccc2)N(c2ccccc2)C1=O)c1ccc(Cl)cc1 (stereo unspecified)	18.7 µM (inactive)
CC[C@H](C)[C@@H]([C@@H](CC(=O)N1CCC[C@H]1[C@H](OC)[C@@H](C)C(=O)NCCc1ccccc1)OC)N(C)C(=O)C(NC(=O)[C@H](C(C)C)N(C)C)C(C)C (stereo partly specified)	0.000446 µM (active)
O=C(O)/C=C/C(=O)Nc1nc[nH]n1	> 100 µM (inactive)
COC(=O)c1cc(C#N)[nH]c1-c1cc(Br)cs1	14.5 µM (inactive)
Cc1cc(Br)c(N2C3=C(CC4=C2CCCC4=O)C(=O)CCC3)c(Br)c1	> 100 µM (inactive)
CC(=O)OC12c3ccccc3-c3ccccc3C1C1C(=O)OC(=O)C12 (stereo unspecified)	> 10 µM (inactive)
O=C1C(Cl)=C(N2CCN(C3=C(Cl)C(=O)c4ccccc4C3=O)CC2)C(=O)c2ccccc21	2.22 µM (inactive)
CC1CC(C)C(O)C(C2CC(CC(=O)NC3CCCCC3)CC(=O)O2)C1 (stereo unspecified)	> 100 µM (inactive)
NC(=O)C(=O)c1ncn(Cc2ccccc2)c1N	> 100 µM (inactive)
Cc1ccc(S(=O)(=O)C2=c3ncccc3=C3C(=O)c4ccccc4C(=O)C32)cc1 (stereo unspecified)	22.6 µM (inactive)
COc1ccc(CCn2cnc3ccccc32)cc1	> 100 µM (inactive)
C/C=C(\C)C(=O)O[C@@H]1CC(C)(C)CC2C3=CCC4[C@]56CC[C@](O)(OC5)C(C)(C)C6CC[C@@]4(C)C3(C)CC[C@]21C(=O)O (stereo partly specified)	> 100 µM (inactive)
C[N+]1(Cc2ccc(Cl)c(Cl)c2)CCCC1C1CCCN(Cc2ccc(Cl)c(Cl)c2)C1 (stereo unspecified)	> 100 µM (inactive)
O=C(c1ccc(Cl)cc1)N(C(=S)OCc1ccccn1)c1ccccc1	> 100 µM (inactive)
C=CC/N=C(\S)Nc1sc2c(c1C(=O)OCC)CC(C)CC2 (stereo unspecified)	36.6 µM (inactive)

---

test system: PC-3; test: NCI tumour cell line growth inhibition, 48 h
Calls of active or inactive are those of the source. No stated cut-off is given here; in the data, active = GI50 up to about 1.1 µM and inactive = higher.
Endpoint: GI50

>>> df
                  compound_structure_string      recorded_result
0                 OCCN(CCO)c1ncnc2[nH]cnc12  > 100 µM (inactive)
1                        Cc1ccc(C(=O)CCl)o1   > 10 µM (inactive)
2  O=C(c1ccc(Cl)cc1Cl)N(C(=O)N1CCC(c2ccccc2)CC1)c1ccccc1   91.2 µM (inactive)
3   Cc1ccc(C(=O)N(C(C)C)C(C)C)cc1/N=N/N(C)C  > 100 µM (inactive)
4  Nc1nc(N)c(/N=N/c2ccc(C(=O)O)c(O)c2)c(N)n1  > 100 µM (inactive)
5          CC1(C)N=c2c(ncn2CCO)=C(C(N)=O)N1  > 100 µM (inactive)
